Ref: PubChem BioAssay (NCATS)

Assay: BET inhibitor-based combinations targeting novel dependencies in MECOM-rearranged (r) AML: AML-194 cell line (AID 2202237; note: nearly all actives have a fitted effect of over 40% in size)
Settings: AML-194 (MECOM-r AML) viability, CellTiter-Glo, 48 h; series mostly up to 46 µM
Inconclusive results are not listed. Calls of active or inactive are those of the source. Calls come from the whole dose curve; as a rule, active = well fitted inhibition curve with a large enough effect; inconclusive = small, poorly fitted or top-dose-only effect; inactive = flat fitted curve, though single readings scatter.
Assign a class; possible classes are active, inactive

Answered examples (3):
{"compound": "NNCCc1ccccc1", "class": "inactive"}
{"compound": "C=C1c2cccc(O)c2C(O)=C2C(=O)[C@@]3(O)C(O)=C(C(N)=O)C(=O)[C@@H](N(C)C)[C@@H]3[C@@H](O)[C@H]12", "class": "inactive"}
{"compound": "Clc1ccc(Nc2nnc(Cc3ccncc3)c3ccccc23)cc1", "class": "inactive"}

Now take the following compound into account.
Check the results log: what was the call for `NC1=N[C@H]2[C@H](CS[C@H]2CCCCC(=O)O)N1` ?
inactive

---

Test: BET inhibitor-based combinations targeting novel dependencies in MECOM-rearranged (r) AML: OCI-AML3 cell line (AID 2202232); note: nearly all actives have a fitted effect of over 35% in size
Conditions: CellTiter-Glo luminescence, 48 h; OCI-AML3 viability; series mostly up to 46 µM
Protocol: Ecotropic viral insertion site 1 (EVI1) is located on chromosome 3q26.2 as part of the MECOM (MDS and EVI1 complex) locus. […] A collection of 2480 mechanistically annotated dugs (MIPE v5.0) was used to screen four 3q26.2 rearranged AML cell lines and three non-3q26.2 rearranged AML cell lines. […] Cell viability was determined by luminescence based, Cell Titer Glo assay (Promega). […] Luminescence readings were taken using a Viewlux (PerkinElmer) with a 2 s exposure time per plate. […]
Inconclusive results are not listed. Active and inactive are the calls of the source. The call rests on the fitted dose curve; in most records, active means well fitted inhibition curve with a large enough effect; inconclusive means small, poorly fitted or top-dose-only effect; inactive means no such curve, though single readings can be large or run the other way.
Assign a class; possible classes are Yes for active, No for inactive

Answered examples (3):
{"smilesStr": "c1cc(Nc2cc(C3CC3)[nH]n2)nc(Nc2ccc3nc[nH]c3c2)n1", "class": "Yes"}
{"smilesStr": "CN(C)c1ccc2nc3ccc(=[N+](C)C)cc-3sc2c1", "class": "Yes"}
{"smilesStr": "CCC(=O)N[C@H]1CC[C@H](C(=O)N(C)c2ccc(-c3nc4ccccc4o3)cc2)C1", "class": "Yes"}

Check the results log: what was the call for `CC[C@H](CC#N)OC(=O)N[C@@H](C)c1cccc(NC(=O)Nc2ccc(-c3cnco3)c(OC)c2)c1` ?
Yes

Check the results log: what was the call for `Cc1cn([C@@H]2C[C@@H](O)[C@H](CO)O2)c(=O)[nH]c1=O` ?
No

Check the results log: what was the call for `COc1cc2c(cc1Cc1cccc(Cl)c1F)c(=O)c(C(=O)O)cn2[C@H](CO)C(C)C` ?
Yes

Check the results log: what was the call for `CCOC(=O)[C@H](CCc1ccccc1)N[C@@H](C)C(=O)N1CCC[C@H]1C(=O)O` ?
No

Check the results log: what was the call for `CC(C)c1c(C(=O)Nc2ccccc2)c(-c2ccccc2)c(-c2ccc(F)cc2)n1CC[C@@H](O)C[C@@H](O)CC(=O)O` ?
Yes

Check the results log: what was the call for `CN1CC(=O)NC1=NC(=O)Nc1cccc(Cl)c1` ?
No

---

Assay: BET inhibitor-based combinations targeting novel dependencies in MECOM-rearranged (r) AML: OCI-AML3 cell line (AID 2202232); note: nearly all actives have a fitted effect of over 35% in size
Conditions: CellTiter-Glo luminescence, 48 h; OCI-AML3 viability; series mostly up to 46 µM
Records with an inconclusive call do not appear. Activity calls are given as the source filed them. The call rests on the fitted dose curve; in most records, active means well fitted inhibition curve with a large enough effect; inconclusive means small, poorly fitted or top-dose-only effect; inactive means no such curve, though single readings can be large or run the other way.
Assign a class; possible classes are active, inactive

{"compound": "CC1(C)[C@@H](O)CC[C@]2(C)[C@H]3C(=O)C=C4[C@@H]5C[C@@](C)(C(=O)O)CC[C@]5(C)CC[C@@]4(C)[C@]3(C)CC[C@@H]12", "class": "inactive"}
{"compound": "C[C@]12CCC(=O)C=C1[C@@H]1C[C@@H]1[C@H]1[C@@H]3[C@@H]4C[C@@H]4[C@@]4(CCC(=O)O4)[C@@]3(C)CC[C@@H]12", "class": "active"}
{"compound": "COc1cc(N2CCC(N3CCN(C)CC3)CC2)ccc1Nc1ncc(Cl)c(Nc2ccccc2P(C)(C)=O)n1", "class": "active"}
{"compound": "CC[C@@H](C)Nc1cc(C(=O)NC2CC3CC[C@@H](C2)N3c2ccc(C(=O)C3CC3)cn2)c(C)cc1C(N)=O (some centres not stated)", "class": "active"}
{"compound": "O=C(O)[C@@H](c1ccc(OCc2ccc3ccccc3n2)cc1)C1CCCC1", "class": "inactive"}
{"compound": "CCc1ccc(C(=O)Nc2cc(CN3CCN(C)CC3)cc(C(F)(F)F)c2)cc1C#Cc1cnc2ccnn2c1", "class": "active"}

Now take the following compound into account.
Check the results log: what was the call for `Cc1c(C(=O)Nc2ccc(N3C[C@@H](C)O[C@@H](C)C3)nc2)cccc1-c1ccc(OC(F)(F)F)cc1` ?
inactive
